Test system: panel of 55 breast cancer cell lines
EXPERIMENT SUMMARY: Cell growth inhibition assay (Cell Titer Glo, 72 h, 9 doses; GI50, TGI, LC50)
Assay type: cell-based, human
STUDY CONDITIONS: BT474 cell line; censored GI50 values; value is the negative log10 of mol/L
Please use TRUE for GI50 under 5 and FALSE for everything else, ties included.

Answered examples (3):
Q: Does O=c1[nH]c(=O)n([C@H]2C[C@H](O)[C@@H](CO)O2)cc1F [5-FdUR] have GI50 strictly under 5?
Result: TRUE

Q: Does O=C1NC(=O)/C(=C/c2ccc(-c3ccc(F)cc3O)o2)S1 [AS-252424] have GI50 strictly under 5?
Result: FALSE

Q: Does Cc1cc(Nc2cc(N3CCN(C)CC3)nc(Sc3ccc(NC(=O)C4CC4)cc3)n2)n[nH]1 [VX-680] have GI50 strictly under 5?
Result: TRUE

// switching to the query compound
Q: Does CC(C)Oc1ccc(C(=O)N[C@H](CNC(=O)CN(C)C)Cc2ccc(-c3cn4cccc([C@H](C)O)c4n3)cc2)cc1Cl [GSK923295] have GI50 strictly under 5?
Result: FALSE
